Test system: SF-539 CNS
Assay: NCI-60 one-dose screen, 48 h
Details: 10 µM unless noted
Procedure: Cells are grown in 96 well plates and exposed to the test compound for 48 hours. Compounds are tested at a single concentration, which is 10^-5 M for most compounds. The reported endpoint is percent growth (GI% or GIPRCNT), where numbers from 0 - 100% represent growth inhibition, and numbers from -100% - 0 represent cell death. For example, a value of 40 represents 60% growth inhibition. A value of 0 means no net growth occurred over the course of the experiment. […]
The panel holds about 83,000 compounds, 20% with a hit somewhere; the sample as a whole holds those more often. Active and inactive are the calls of the source. How the source made its calls: active means growth percent below 10; inactive means the rest.
Possible outcomes: active, inactive

compound: O=C1/C(=C/c2ccccc2)SC(=S)N1CCc1ccc(O)cc1
class.assignment: inactive
--
compound: c1ccc(-c2cc3n4c(-c5ccccc5)nn(-c5ccccc5)c4cnc-3n2)cc1
class.assignment: inactive
--
compound: Cc1cn2c(/C=C3/C(=O)Nc4c3ccc3ccccc43)c(C(F)(F)F)nc2s1
class.assignment: active
--
compound: CCCc1cc(=O)n2c(C(=O)Nc3cccc(C(=O)OCC)c3)c(C(=O)Nc3ccc(F)cc3)sc2n1
class.assignment: inactive
--
compound: Cc1cc2c3ccccc3ccc2[n+]2ccccc12
class.assignment: inactive
--
compound: Oc1ccccc1-c1nnc(CNc2ccc(Cl)cc2)o1
class.assignment: inactive
--
compound: O=C1/C(=C/N2N=C(c3ccc4ccccc4c3)CC2c2ccccc2O)SC(=S)N1c1cccnc1 (configuration not stated)
class.assignment: active
--
compound: COc1cc(/C=C/c2cc(/C=C/c3ccc(O)c(OC)c3)n(-c3c(Cl)cccc3Cl)c(=O)n2)ccc1O
class.assignment: active
--
compound: O=C1c2cccc3cccc(c23)C(=O)N1CCCCN1CCN(CCCCOc2ccc(-c3nc4ccc(N5CCOCC5)cc4[nH]3)cc2)CC1
class.assignment: inactive
--
compound: O=C1Nc2c(ccc(Cl)c2Cl)/C1=C\c1cc(C(F)(F)F)cc(C(F)(F)F)c1
class.assignment: active
--
compound: COc1ccc2[nH]cc(-c3noc(C(=O)c4cn(C)c5ccc(F)cc45)n3)c2c1
class.assignment: inactive
--
compound: C#CCOc1ccc2ncnc(NCc3cccc(NC(=O)CCl)c3)c2c1
class.assignment: inactive
